Task for the reader: assign each of the following binders its reported koff.
Tgt: T1, human PCSK9 (human, UniProt Q8NBP7 31-692, limits assumed)
T1 construct: also called hPCSK9; huPCSK9
Assay Comment: SPR Biacore 3000, captured IgG, hPCSK9 injected, pH 5.5
Numbers only, in s⁻¹.

Example results:
6L1721H23 (antibody, V domains shown, L1L3-based mutant; Full-length IgG) VH: QVQLVQSGAEVKKPGASVKVSCKASGYTFTSYYMHWVRQAPGQGLEWMGEIHPFGGRTNYNEKFKSRVTMTRDTSTSTVYMELSSLRSEDTAVYYCARERPLYASDLWGQGTTVTVSS VL: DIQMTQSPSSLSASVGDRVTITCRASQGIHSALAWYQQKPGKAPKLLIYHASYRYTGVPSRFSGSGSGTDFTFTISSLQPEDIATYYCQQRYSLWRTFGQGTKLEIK = 0.00261
5L1721H23_6L3 (antibody, V domains shown, Tested as full-length IgG; also called heavy UC-H5H23, light UC-H5L1721-6L3) VH: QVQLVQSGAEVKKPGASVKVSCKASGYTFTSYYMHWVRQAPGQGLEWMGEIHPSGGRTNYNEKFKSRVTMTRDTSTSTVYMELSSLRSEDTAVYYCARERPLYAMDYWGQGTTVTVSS VL: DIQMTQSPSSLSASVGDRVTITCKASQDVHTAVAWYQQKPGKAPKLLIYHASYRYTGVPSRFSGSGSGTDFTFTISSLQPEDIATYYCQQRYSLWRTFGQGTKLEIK = 0.0166

Input 5L1724H23_6L3 (antibody, V domains shown, Only CDRs printed; Full-length IgG) VH: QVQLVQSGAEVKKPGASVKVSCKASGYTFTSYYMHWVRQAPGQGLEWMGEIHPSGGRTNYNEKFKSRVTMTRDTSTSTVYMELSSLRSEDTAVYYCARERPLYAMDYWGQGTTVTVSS VL: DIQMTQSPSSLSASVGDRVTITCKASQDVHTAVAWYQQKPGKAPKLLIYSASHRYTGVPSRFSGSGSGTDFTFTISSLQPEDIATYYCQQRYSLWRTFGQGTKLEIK . Output koff: 0.0407
